All figures here come from patent US20250320312A1.

Each entry below lists one item and its recorded OD450 value.
# tgt: Peptide 5: Biotin-…-[Tyr(PC)]-acid
# Sequence (peptide, as listed by the source): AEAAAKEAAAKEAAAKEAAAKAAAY
# procedureDetails: scFv ELISA
Give the number; OD450 is assumed, so skip it.

>  <binder>
PcOxP_DB01_D08 (scFv, V domains shown, scFv in periplasmic extract) VH: EVQLLESGGGLVQPGGSLRLSCAASGFTFSDAYMEWVRQAPGKGLEWVAASRNKANDYTTEYADSVKGRFTISRDNSKNTLYLQMNSLRAEDTAVYYCARDYYGSSYWYFDSWGQGTLVTVSS VL: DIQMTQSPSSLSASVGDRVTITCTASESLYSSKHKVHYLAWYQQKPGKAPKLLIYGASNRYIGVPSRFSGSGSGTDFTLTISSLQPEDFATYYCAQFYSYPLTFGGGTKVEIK

>  <unitsSymbol>
OD450

>  <OD450>
1.08

$$$$

# next binder below
State its OD450 for this binder: PcOxP_DB02_C02 (scFv, V domains shown, scFv in periplasmic extract) VH: EVQLLESGGGLVQPGGSLRLSCAASGFTFSDFYMEWVRQAPGKGLEWVAASRNKANDYTVEYADSVKGRFTISRDNSKNTLYLQMNSLRAEDTAVYYCARDYYGHSYWYFDVWGQGTLVTVSS VL: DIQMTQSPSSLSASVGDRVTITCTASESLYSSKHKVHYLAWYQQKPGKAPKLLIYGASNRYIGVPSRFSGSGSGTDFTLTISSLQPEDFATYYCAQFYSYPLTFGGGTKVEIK
0.62
